# procedure.details: Pharmacokinetics in ICR mice after intravenous and intragastric administration
# Assay type: in vivo
# details: male, ICR, mouse, plasma, po, 5 mg/kg, ICR mice, PO 5 mg/kg, individual animals 401-403
Where AUC(0-inf) equals or exceeds 9000 ng·h/mL, the correct label is class 1; where it does not, the label is class 0.

Look over these answered cases.
# compound.structure.string, class
data = [
    ("COc1cc(OC(C)C)ncc1-c1nc2c(n1C(C)C)[C@@]1(C(=O)Nc3cc(Cl)ccc31)N(c1cc(Cl)cnc1C)C2=O", "class 1"),
    ("CCOc1ncc(-c2nc3c(n2C(C)C)[C@@]2(C(=O)Nc4cc(Cl)ccc42)N(c2cc(Cl)cnc2C)C3=O)c(OC)n1", "class 1"),
    ("COc1nc(N(C)C)ncc1-c1nc2c(n1C(C)C)[C@@]1(C(=O)Nc3cc(Cl)ccc31)N(c1cc(Cl)cnc1C)C2=O", "class 1"),
    ("COc1nc(C2CC2)ncc1-c1nc2c(n1C(C)C)[C@@]1(C(=O)Nc3cc(Cl)ccc31)N(c1cc(Cl)cnc1C)C2=O", "class 0"),
]

# evaluate next
Req: Say whether `COc1nc(OCCF)ncc1-c1nc2c(n1C(C)C)[C@@]1(C(=O)Nc3cc(Cl)ccc31)N(c1cc(Cl)ccc1C)C2=O` shows AUC(0-inf) of 9000 ng·h/mL or more.
Resp: class 1
